# Test Summary: Antagonist activity at CRTh2 receptor in human whole blood assessed as inhibition of PGD2-induced eosinophil shape change preincubated for 10 mins followed by PGD2 addition measured after 4 mins by side scatter analysis
# 1 = IC50 below 2 µM (exclusive); 0 = IC50 at/above 2 µM

Below are worked cases with known answers.
Prompt line: Input Cc1c(CC(=O)O)c(-c2ccccc2)nn1Cc1ccccc1S(=O)(=O)c1ccccc1 ; condition: IC50 strictly below 2 µM. Does it hold?
Response line: 0

Prompt line: Input Cc1c(CC(=O)O)c(-c2ccc(Cl)cc2)nn1Cc1ccccc1S(=O)(=O)c1ccccc1 ; condition: IC50 strictly below 2 µM. Does it hold?
Response line: 0

Prompt line: Input Cc1nn(-c2cccc(NC(=O)[C@H]3C[C@@H]3c3ccccc3)c2)c(C)c1CC(=O)O ; condition: IC50 strictly below 2 µM. Does it hold?
Response line: 0

Prompt line: Input Cc1nn(Cc2ccccc2S(=O)(=O)c2ccccc2)c(C)c1CC(=O)O ; condition: IC50 strictly below 2 µM. Does it hold?
Response line: 1

For the next question, use this molecule.
Prompt line: Input Cc1c(CC(=O)O)c(=O)[nH]n1Cc1ccccc1S(=O)(=O)c1ccccc1 ; condition: IC50 strictly below 2 µM. Does it hold?
Response line: 1

Data credit: BindingDB's records for doi:10.1016/j.bmcl.2013.03.093
